Test system: T1, human hepcidin (mature, 25 amino acids) (human, mono-biotinylated in the ELISAs and on the KinExA beads (site not stated); unlabelled in solution and on the BIAcore chip)
T1 construct: the form is named in each assay field; also called rhuHepc; rhHepc
T1 peptide: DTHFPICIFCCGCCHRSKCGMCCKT
Assay explanation: ELISA, mono-biotinylated human hepcidin on Neutravidin plate, pH 7.4
Entries and their measured EC50 follow.

A selection of reference data follows.
INSERT INTO results (binder, reported_measurement) VALUES
  ('15E1 W52H (antibody, V domains shown, Histidine mutant of 15E1, transiently expressed in 293-6E cells; constant regions as in wild-type 15E1; also called W52H (heavy chain)) VH: QVQLVESGGGVVQPGRSLRLSCAASGFTFSSYGMHWVRQAPGKGLEWVAVIHYAESNKYYADSVKGRFTISRDNSKNTLYLQMNSLRAEDTAVYYCARAQEGIAPDAFDIWGQGTMVTVSS VL: SYELTQPPSVSVSPGQTATITCSGDKLGERYACWYQQRPGQSPVLVIYQDSKRPSGIPERFSGSNSGNTATLTISGTQAMDEADYFCQAWYSSTNVLFGGGTKLTVL', '4.5 ng/mL'),
  ('15E1 A107H A89H (antibody, V domains shown, Double histidine mutant of 15E1 (one change in each chain); constant regions as in wild-type 15E1; also called A107H (heavy chain)/A89H (light chain)) VH: QVQLVESGGGVVQPGRSLRLSCAASGFTFSSYGMHWVRQAPGKGLEWVAVIWYAESNKYYADSVKGRFTISRDNSKNTLYLQMNSLRAEDTAVYYCARAQEGIAPDHFDIWGQGTMVTVSS VL: SYELTQPPSVSVSPGQTATITCSGDKLGERYACWYQQRPGQSPVLVIYQDSKRPSGIPERFSGSNSGNTATLTISGTQAMDEADYFCQHWYSSTNVLFGGGTKLTVL', '6 ng/mL'),
  ('antibody 15E1 (wild type) (antibody, V domains shown, Human antibody) VH: QVQLVESGGGVVQPGRSLRLSCAASGFTFSSYGMHWVRQAPGKGLEWVAVIWYAESNKYYADSVKGRFTISRDNSKNTLYLQMNSLRAEDTAVYYCARAQEGIAPDAFDIWGQGTMVTVSS VL: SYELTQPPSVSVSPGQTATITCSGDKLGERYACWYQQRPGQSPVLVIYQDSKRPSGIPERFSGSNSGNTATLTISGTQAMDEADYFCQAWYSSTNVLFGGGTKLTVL', '2.3 ng/mL'),
  ('15E1 A107H (antibody, V domains shown, Histidine mutant of 15E1, transiently expressed in 293-6E cells; constant regions as in wild-type 15E1; also called A107H (heavy chain)) VH: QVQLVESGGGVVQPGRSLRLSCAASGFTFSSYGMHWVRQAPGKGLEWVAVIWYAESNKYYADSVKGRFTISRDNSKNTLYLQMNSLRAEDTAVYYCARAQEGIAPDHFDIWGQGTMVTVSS VL: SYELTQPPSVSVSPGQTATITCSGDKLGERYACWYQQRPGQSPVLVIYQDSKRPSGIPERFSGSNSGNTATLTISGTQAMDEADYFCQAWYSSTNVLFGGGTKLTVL', '2 ng/mL');

Query binder follows.
Look at this binder and give its reported EC50. 15E1 A99H A107H (antibody, V domains shown, Double histidine mutant of 15E1; constant regions as in wild-type 15E1; also called A107H (heavy chain)/A99H (heavy chain)) VH: QVQLVESGGGVVQPGRSLRLSCAASGFTFSSYGMHWVRQAPGKGLEWVAVIWYAESNKYYADSVKGRFTISRDNSKNTLYLQMNSLRAEDTAVYYCARHQEGIAPDHFDIWGQGTMVTVSS VL: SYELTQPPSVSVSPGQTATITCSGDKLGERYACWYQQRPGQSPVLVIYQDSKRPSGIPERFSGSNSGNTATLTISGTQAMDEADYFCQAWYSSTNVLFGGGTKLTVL
3 ng/mL
